PROTOCOL_SUMMARY: collision cross section of modified peptide (TIMS, N2, iRT-aligned); higher = larger / more extended gas-phase ion
STATED_CONDITIONS: charge state: 2; modification: Dimethyl (K)
± gives the standard deviation.
What collision cross section was measured for each of the following?

Some entries whose results are on file:
INSERT INTO assay_data (macromolecule_sequence, quantity_name, value_reported) VALUES
  ('YIEIYVQKVNPSR [_YIEIYVQK(Dimethyl (K))VNPSR_]', 'collision cross section', '441.4 ± 1.2 Å²'),
  ('PASGAGAGAGAGKR [_PASGAGAGAGAGK(Dimethyl (K))R_]', 'collision cross section', '385.92 ± 1.6 Å²'),
  ('VYIASSSGSTAIKK [_VYIASSSGSTAIK(Dimethyl (K))K_]', 'collision cross section', '434.74 ± 1.3 Å²'),
  ('DLGKFQVATDALK [_DLGK(Dimethyl (K))FQVATDALK_]', 'collision cross section', '400.58 ± 0.77 Å²'),
  ('DSSPTTNSKLSALQR [_DSSPTTNSK(Dimethyl (K))LSALQR_]', 'collision cross section', '423.14 ± 1.1 Å²'),
  ('ASAISIKLGSSK [_ASAISIK(Dimethyl (K))LGSSK_]', 'collision cross section', '373.07 ± 0.36 Å²');

The following sequences each have a reported value; give each one's collision cross section.
1. VNALKNLQVK [_VNALK(Dimethyl (K))NLQVK_]
2. DYSAPVNFISAGLKK [_DYSAPVNFISAGLK(Dimethyl (K))K_]
3. GTITVSAQELKDNR [_GTITVSAQELK(Dimethyl (K))DNR_]
4. SKLLFSNTAAQK [_SK(Dimethyl (K))LLFSNTAAQK_]

1. 371.74 ± 0.57 Å²
2. 457.54 ± 1.7 Å²
3. 437.65 ± 1.3 Å²
4. 389.15 Å²

###

PROTOCOL_SUMMARY: collision cross section of modified peptide (TIMS, N2, iRT-aligned); higher = larger / more extended gas-phase ion
STATED_CONDITIONS: charge state: 3; modification: Propionyl
What collision cross section was measured for each of the following?
Give bare numbers, in Å².

INSERT INTO results (macromolecule_sequence, measurement_unit, value_reported) VALUES
  ('VNIGQGSHPQKVK [_VNIGQGSHPQK(Propionyl)VK_]', 'Å²', 485.17),
  ('SSFAYKDQNENR [_SSFAYK(Propionyl)DQNENR_]', 'Å²', 462.04),
  ('LDHLAEKFR [_LDHLAEK(Propionyl)FR_]', 'Å²', 442.11),
  ('ITESVAETAQTIKK [_ITESVAETAQTIK(Propionyl)K_]', 'Å²', 515.07),
  ('VLTANSNPSSPSAAKR [_VLTANSNPSSPSAAK(Propionyl)R_]', 'Å²', 528.16),
  ('ANEKTESSSAQQVAVSR [_ANEK(Propionyl)TESSSAQQVAVSR_]', 'Å²', 533.7);

The following sequences each have a reported value; give each one's collision cross section.
1. LQEKVESAQSEQK [_LQEK(Propionyl)VESAQSEQK_]
2. PASGAGAGAGAGKR [_PASGAGAGAGAGK(Propionyl)R_]
3. LGNDFHTNKR [_LGNDFHTNK(Propionyl)R_]

502.35
464.2
447.46

The origin of these recorded values is the supplement of paper PMC10598134.
